The following sequences are shown together with reported binding signal values.
- Target Under Test: POU2 (OCT2 POU domain);BOB1 (OBF1, OCA-B) (human;human, UniProt P09086;Q16633 175-386;1-256, |)
- Sequence 1: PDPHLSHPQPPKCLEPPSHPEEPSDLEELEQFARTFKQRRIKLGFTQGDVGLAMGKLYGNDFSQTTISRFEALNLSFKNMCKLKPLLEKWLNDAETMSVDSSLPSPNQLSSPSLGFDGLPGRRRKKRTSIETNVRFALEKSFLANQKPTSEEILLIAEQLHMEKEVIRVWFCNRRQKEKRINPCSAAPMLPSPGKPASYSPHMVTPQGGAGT
- Sequence 2: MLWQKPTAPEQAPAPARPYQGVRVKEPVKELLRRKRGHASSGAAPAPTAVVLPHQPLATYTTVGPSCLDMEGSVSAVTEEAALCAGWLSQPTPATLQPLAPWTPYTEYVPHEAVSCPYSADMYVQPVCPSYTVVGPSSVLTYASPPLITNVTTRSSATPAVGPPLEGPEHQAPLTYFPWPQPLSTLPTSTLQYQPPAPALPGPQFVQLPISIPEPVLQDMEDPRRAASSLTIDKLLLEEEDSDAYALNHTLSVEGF
- Test Details: EMSA-SELEX-seq; with BOB1 (ternary complex band); 20 mM Tris-HCl pH 7.6, 140 mM NaCl, 10% glycerol, 0.5 mM EDTA, 0.05% Triton X-100, 0.1 mg/mL BSA, 0.1 mg/mL poly(dI-dC), 5 mM DTT, room temperature, 20 min; high values mean tight binding
- Settings: protein: recombinant;recombinant; copies: 1;1; dsDNA, one strand shown

Example sequences with recorded binding signal:
[
  {
    "Sequence Text": "AAACGAAC",
    "binding signal": "0.0355 % of ANNNNAAN 8-mers"
  },
  {
    "Sequence Text": "ACGTCAAT",
    "binding signal": "0.0322 % of ANNNNAAN 8-mers"
  },
  {
    "Sequence Text": "ATGCCAAA",
    "binding signal": "0.0438 % of ANNNNAAN 8-mers"
  }
]

I am curious: what binding signal value has been reported for AACATAAC ? 0.033 % of ANNNNAAN 8-mers

Looking for the measured binding signal of AGCTTAAG , can you help? 0.0355 % of ANNNNAAN 8-mers

Query: binding signal; subject: AGAAGAAT 0.0603 % of ANNNNAAN 8-mers

Record request: binding signal value, item AGTGTAAC 0.0272 % of ANNNNAAN 8-mers

Param item = AATATAAC ; retrieve measured binding signal. 0.0578 % of ANNNNAAN 8-mers

Consider the sequence shown here: ACAGTAAG What is its recorded binding signal? 0.0272 % of ANNNNAAN 8-mers

----------
- Target Under Test: POU2 (OCT2 POU domain) (human, UniProt P09086 175-386)
- Sequence: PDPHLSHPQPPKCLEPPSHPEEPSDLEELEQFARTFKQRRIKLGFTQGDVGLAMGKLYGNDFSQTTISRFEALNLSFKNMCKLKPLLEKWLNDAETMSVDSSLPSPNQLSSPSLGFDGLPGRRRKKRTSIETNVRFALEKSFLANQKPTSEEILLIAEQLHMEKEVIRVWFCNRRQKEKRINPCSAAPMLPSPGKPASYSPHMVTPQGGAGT
- Test Details: EMSA-SELEX-seq; no BOB1; 20 mM Tris-HCl pH 7.6, 140 mM NaCl, 10% glycerol, 0.5 mM EDTA, 0.05% Triton X-100, 0.1 mg/mL BSA, 0.1 mg/mL poly(dI-dC), 5 mM DTT, room temperature, 20 min; high values mean tight binding
- Settings: protein: recombinant; dsDNA, one strand shown
Measured Metric: binding signal

[
  {
    "Sequence Text": "AACGTAAC",
    "Reported Measurement": "0.0236 % of ANNNNAAN 8-mers"
  },
  {
    "Sequence Text": "ACGGTAAG",
    "Reported Measurement": "0.0311 % of ANNNNAAN 8-mers"
  },
  {
    "Sequence Text": "AGCGGAAA",
    "Reported Measurement": "0.0472 % of ANNNNAAN 8-mers"
  }
]

// lookup binding signal | system=POU2 (OCT2 POU domain) (human, UniProt P09086 175-386) | key= AGTGAAAG 0.0409 % of ANNNNAAN 8-mers

Notebook: pull reported binding signal for POU2 (OCT2 POU domain) (human, UniProt P09086 175-386), entry AAAAGAAC 0.0443 % of ANNNNAAN 8-mers

binding signal of ATATGAAA on POU2 (OCT2 POU domain) (human, UniProt P09086 175-386)? 0.164 % of ANNNNAAN 8-mers

Write down the reported binding signal of AATTCAAT , test system: POU2 (OCT2 POU domain) (human, UniProt P09086 175-386). 0.125 % of ANNNNAAN 8-mers

Query the reported binding signal for POU2 (OCT2 POU domain) (human, UniProt P09086 175-386); item: AGAACAAC 0.0132 % of ANNNNAAN 8-mers

----------
Recorded binding signal for the following sequences
- Target Under Test: POU1 (OCT1 POU domain) (human, UniProt P14859 260-458)
- Sequence (P14859 260-458): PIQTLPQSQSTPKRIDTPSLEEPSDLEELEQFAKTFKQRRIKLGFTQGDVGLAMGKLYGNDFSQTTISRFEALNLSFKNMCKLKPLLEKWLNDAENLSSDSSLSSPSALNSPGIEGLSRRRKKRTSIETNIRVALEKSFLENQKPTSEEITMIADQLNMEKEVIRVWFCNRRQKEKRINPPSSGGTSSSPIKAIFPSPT
- Test Details: EMSA-SELEX-seq; no BOB1; 20 mM Tris-HCl pH 7.6, 140 mM NaCl, 10% glycerol, 0.5 mM EDTA, 0.05% Triton X-100, 0.1 mg/mL BSA, 0.1 mg/mL poly(dI-dC), 5 mM DTT, room temperature, 20 min; high values mean tight binding
- Settings: protein: recombinant; dsDNA, one strand shown

[
  {
    "Sequence Text": "AACAGAAG",
    "binding signal": "0.0244 % of ANNNNAAN 8-mers"
  }
]

GET /values?readout=binding signal&item= AGGGCAAG 0.0294 % of ANNNNAAN 8-mers

Suppose we examine the sequence ATCCCAAT ; what binding signal value has been reported? 0.0317 % of ANNNNAAN 8-mers

// lookup binding signal for AGGGAAAA 0.205 % of ANNNNAAN 8-mers

Query: binding signal; subject: AGATTAAA 0.105 % of ANNNNAAN 8-mers

Quick one: binding signal for ATCTAAAC ? 0.0229 % of ANNNNAAN 8-mers

# lookup: binding signal of AATGGAAG 0.101 % of ANNNNAAN 8-mers

What value of binding signal has been reported for the following sequence? AAACCAAC 0.0206 % of ANNNNAAN 8-mers

binding signal for AAAATAAT ? 0.178 % of ANNNNAAN 8-mers

# lookup: binding signal of ACCTCAAG 0.0141 % of ANNNNAAN 8-mers

# get_value(readout='binding signal', item= AAAAAAAA ) 0.11 % of ANNNNAAN 8-mers

Would you mind telling me what binding signal value was observed for ATCCCAAC ? 0.0137 % of ANNNNAAN 8-mers

----------
Each entry below carries its recorded binding signal.
- Target Under Test: POU2 (OCT2 POU domain) (human, UniProt P09086 175-386)
- Sequence: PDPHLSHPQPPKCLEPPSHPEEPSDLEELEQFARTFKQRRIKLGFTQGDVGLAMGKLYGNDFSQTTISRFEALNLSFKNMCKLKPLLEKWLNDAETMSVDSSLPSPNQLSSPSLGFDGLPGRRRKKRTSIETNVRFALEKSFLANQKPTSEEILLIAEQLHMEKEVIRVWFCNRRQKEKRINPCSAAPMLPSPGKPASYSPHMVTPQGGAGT
- Test Details: EMSA-SELEX-seq; no BOB1; 20 mM Tris-HCl pH 7.6, 140 mM NaCl, 10% glycerol, 0.5 mM EDTA, 0.05% Triton X-100, 0.1 mg/mL BSA, 0.1 mg/mL poly(dI-dC), 5 mM DTT, room temperature, 20 min; high values mean tight binding
- Settings: protein: recombinant; dsDNA, one strand shown

Bench note: what binding signal did AAACCAAG show? 0.0161 % of ANNNNAAN 8-mers

Query (sequence): AGTTAAAA ; field requested: binding signal 0.0915 % of ANNNNAAN 8-mers

Dear colleague, I am looking for the recorded binding signal of the following sequence: ATTGGAAC 0.0426 % of ANNNNAAN 8-mers

Suppose we examine the sequence AGAAAAAG ; what binding signal value has been reported? 0.0581 % of ANNNNAAN 8-mers

----------
- Target Under Test: POU1 (OCT1 POU domain);BOB1 (OBF1, OCA-B) (human;human, UniProt P14859;Q16633 260-458;1-256, |)
- Sequence (P14859 260-458, one chain of several): as the sequence (P14859 260-458) above
- Test Details: EMSA-SELEX-seq; with BOB1 (ternary complex band); 20 mM Tris-HCl pH 7.6, 140 mM NaCl, 10% glycerol, 0.5 mM EDTA, 0.05% Triton X-100, 0.1 mg/mL BSA, 0.1 mg/mL poly(dI-dC), 5 mM DTT, room temperature, 20 min; high values mean tight binding
- Settings: protein: recombinant;recombinant; copies: 1;1; dsDNA, one strand shown
Here the recorded binding signal is given for each entry.

Examples with their reported binding signal follow.
[
  {
    "Sequence Text": "AATGTAAG",
    "binding signal": "0.089 % of ANNNNAAN 8-mers"
  },
  {
    "Sequence Text": "ACTGAAAA",
    "binding signal": "0.0328 % of ANNNNAAN 8-mers"
  },
  {
    "Sequence Text": "AAAAAAAG",
    "binding signal": "0.111 % of ANNNNAAN 8-mers"
  },
  {
    "Sequence Text": "ACTAGAAG",
    "binding signal": "0.03 % of ANNNNAAN 8-mers"
  },
  {
    "Sequence Text": "AACGGAAA",
    "binding signal": "0.0741 % of ANNNNAAN 8-mers"
  },
  {
    "Sequence Text": "AAGAGAAG",
    "binding signal": "0.0402 % of ANNNNAAN 8-mers"
  }
]

Give its binding signal value. Item: ACTCCAAC 0.0113 % of ANNNNAAN 8-mers

If you can, please state the reported binding signal value of ATTTTAAA . 0.126 % of ANNNNAAN 8-mers

For the sequence ATATCAAT , what binding signal is on record? 0.0804 % of ANNNNAAN 8-mers

I'd like to know its binding signal. The sequence in question is AGTATAAG 0.041 % of ANNNNAAN 8-mers

May I ask what binding signal has been recorded for AAAATAAG ? 0.148 % of ANNNNAAN 8-mers

// lookup binding signal for AGTGTAAA 0.0687 % of ANNNNAAN 8-mers

What value of binding signal has been recorded for this entry: ATGCAAAC 1.35 % of ANNNNAAN 8-mers

If you can, please state the reported binding signal value of ACTAAAAC . 0.023 % of ANNNNAAN 8-mers
